assay: In vivo rat iv/po PK; conditions: male, Sprague-Dawley, rat, plasma, po, 3 mg/kg, rat (SD), po 3.0 mg/kg
measured_endpoint: bioavailability

Short answer for Cc1nc(C)c2c(n1)sc1c(NCc3ccc(C(C)(C)O)cc3)nccc12 [22g] : bioavailability was ≥ 100%

* * *

experiment: In vivo dog iv/po PK; details: male, plasma; dog (beagle), po 1.0 mg/kg, fasted
measured_endpoint: AUC(0-inf)

Short answer for Cc1nc(C)c2c(n1)sc1c(NCc3ccc(C(C)(C)O)cc3)nccc12 [22g] : AUC(0-inf) was 200 ng·h/mL

* * *

molecular target: rat M4 (rM4) (Rattus norvegicus); test: Calcium mobilization assay, rat M4
Sequence (P08485 whole entry): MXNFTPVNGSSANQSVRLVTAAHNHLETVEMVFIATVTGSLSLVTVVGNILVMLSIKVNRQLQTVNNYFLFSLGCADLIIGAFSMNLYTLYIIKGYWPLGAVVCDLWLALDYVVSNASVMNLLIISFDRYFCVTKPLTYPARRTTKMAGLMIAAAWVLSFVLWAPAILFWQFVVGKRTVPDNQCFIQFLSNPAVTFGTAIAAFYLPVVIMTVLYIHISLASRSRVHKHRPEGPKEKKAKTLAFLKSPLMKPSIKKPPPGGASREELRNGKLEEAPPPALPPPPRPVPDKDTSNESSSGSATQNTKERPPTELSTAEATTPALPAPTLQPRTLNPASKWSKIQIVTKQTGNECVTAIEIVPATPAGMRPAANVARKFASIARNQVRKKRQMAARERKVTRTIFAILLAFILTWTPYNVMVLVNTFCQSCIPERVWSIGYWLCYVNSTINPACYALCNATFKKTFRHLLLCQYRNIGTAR
measured_endpoint: EC50 (nM)
Give the quantity in nM, number only.

Short answer for Cc1nc(C)c2c(n1)sc1c(N3CC4(C3)CC(F)(F)C4)ncnc12 [14h] : EC50 was 380
